biological target: 5-HT2C receptor (Homo sapiens, UniProt P28335); construct: host or cells: HEK293; test: FLIPR Ca2+ flux functional assay, agonist activity at 5-HT2C; format: cell-based; details: HEK293 cells, Ca2+ flux
property.name: Emax (%)
Could you give me the number in %? Just the number is fine.

-- ask Can you share its Emax? I mean this molecule: CCN(C)CCc1c[nH]c2ncc(F)cc12 [Example P-25]
-- reply 21

-- ask Subsequent entry: COc1nccc2[nH]cc(CCN(C)C)c12 [Example P-5]
-- reply 79.1

-- ask Consider next the molecule CN(C)CCc1n[nH]c2cccc(O)c12 [Example P-56] in the same way.
-- reply 63.6

-- ask Proceed to CCCN(CCC)CCc1c[nH]c2ncc(OC)cc12 [Example P-18]
-- reply -0.33

-- ask Try the molecule CCN(CC)CCc1c[nH]c2ncc(OC)cc12 [Example P-17]
-- reply -0.53

-- ask Another molecule to check: CN(C)CCc1c[nH]c2nccc(F)c12 [Example P-32]
-- reply 0.61

-- ask Let us now turn to CCCN(CCC)CCc1c[nH]c2ccc(OC)nc12 [Example P-11]
-- reply 96.3

-- ask Next up: CCN(C)CCc1c[nH]c2ncc(C)cc12 [Example P-23]
-- reply -0.04

-- ask Do the same for CCN(CC)CCc1c[nH]c2ccc(OC)nc12 [Example P-10] please
-- reply 99.1

-- ask Then COc1ccnc2[nH]cc(CCN(C)C(C)C)c12 [Example P-29] ?
-- reply 0.48

-- ask What do you get for CCN(C)CCc1c[nH]c2nccc(F)c12 [Example P-33] ?
-- reply 0.33

----------
assay: In vivo pharmacokinetics: plasma and brain exposure after IP administration; set-up: species or system male C57BL/6 mice; settings: mouse, plasma; male C57BL/6 mice, IP 10 mg/kg
property.name: Tmax (min)
Use min as the unit, but write only the number.

-- ask For the molecule `COc1ccc2[nH]cc(CCN(C)C)c2n1` , what Tmax is on record?
-- reply 5

-- ask Cool, now `COc1nccc2[nH]cc(CCN(C)C)c12`
-- reply 5

----------
target: 5-HT2A receptor (Homo sapiens); construct: host or cells: HEK293; assay: FLIPR Ca2+ flux functional assay, agonist activity at 5-HT2A; assay type: cell-based
property.name: EC50 (nM)
All answers are understood in nM, so give the number only.

-- ask Which value of EC50 has been reported for COc1ccc2[nH]cc(CCN(C)C)c2n1 [Example P-1] in the records?
-- reply 34.9

----------
For each entry below, report its EC50 value.
Molecular target: 5-HT2C receptor (Homo sapiens)
Construct: host or cells: HEK293
Sequence (P28335 33-458): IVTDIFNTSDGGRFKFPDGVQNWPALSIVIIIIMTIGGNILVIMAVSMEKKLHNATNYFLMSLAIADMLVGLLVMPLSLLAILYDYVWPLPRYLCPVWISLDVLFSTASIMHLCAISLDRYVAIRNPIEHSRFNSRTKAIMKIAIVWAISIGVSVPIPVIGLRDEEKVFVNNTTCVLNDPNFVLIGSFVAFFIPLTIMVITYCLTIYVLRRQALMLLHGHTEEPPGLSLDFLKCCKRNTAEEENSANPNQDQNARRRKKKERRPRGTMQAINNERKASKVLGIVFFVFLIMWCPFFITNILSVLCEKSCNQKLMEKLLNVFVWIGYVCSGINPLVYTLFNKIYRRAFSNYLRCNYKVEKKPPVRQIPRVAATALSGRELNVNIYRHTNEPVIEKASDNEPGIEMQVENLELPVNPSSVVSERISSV
Experiment: FLIPR Ca2+ flux functional assay, agonist activity at 5-HT2C
Format: cell-based
Conditions: HEK293 cells, Ca2+ flux; read-out: 5-HT2C EC50

-- ask Which EC50 reading was recorded for the compound `COc1cnc2[nH]cc(CCN(C)C(C)C)c2c1` ?
-- reply > 10 µM

-- ask Try this compound next: `CCN(CC)CCc1c[nH]c2ccc(OC)nc12`
-- reply 0.0686 µM

-- ask Also, `COc1cnc2[nH]cc(CCN(C(C)C)C(C)C)c2c1` please.
-- reply > 10 µM

-- ask Further, for `CCN(C)CCc1c[nH]c2nccc(C)c12` ?
-- reply > 10 µM

-- ask What about this compound? `CCCN(CCC)CCc1n[nH]c2cccc(O)c12`
-- reply > 10 µM

-- ask Another compound to check: `COc1ccc2[nH]cc(CCN(C)C(C)C)c2n1`
-- reply 0.139 µM

-- ask Another compound: `CCN(C)CCc1n[nH]c2ccc(OC)cc12`
-- reply > 10 µM

-- ask Same question, `COc1ccc2[nH]nc(CCN(C)C(C)C)c2c1` this time
-- reply > 10 µM

-- ask // next record `CN(C)CCc1c[nH]c2nccc(F)c12`
-- reply > 10 µM

-- ask Further, for `CCCN(CCC)CCc1n[nH]c2cccc(OC)c12` ?
-- reply 1.7 µM

-- ask How about `CCCN(CCC)CCc1c[nH]c2ncc(OC)cc12` ?
-- reply > 10 µM

-- ask Try this compound next: `CCN(C)CCc1c[nH]c2ncc(OC)cc12`
-- reply > 10 µM

-- ask # iterate: `CCCN(CCC)CCc1n[nH]c2ccc(OC)cc12`
-- reply > 10 µM

-- ask Try this compound next: `CCN(CC)CCc1n[nH]c2cccc(O)c12`
-- reply > 10 µM

-- ask Try the compound `CCN(C)CCc1c[nH]c2ccc(OC)nc12`
-- reply 0.0319 µM

-- ask Field entry: `COc1nccc2[nH]cc(CCN(C)C)c12`
-- reply 0.0384 µM

-- ask Request: `CCN(C)CCc1c[nH]c2ncc(F)cc12`
-- reply > 10 µM

-- ask And `CCN(C)CCc1c[nH]c2nccc(F)c12` ?
-- reply > 10 µM

-- ask Again, but for `CCCN(CCC)CCc1c[nH]c2ccnc(OC)c12`
-- reply 7.18 µM

-- ask Next record, please: `COc1nccc2[nH]cc(CCN(C)C(C)C)c12`
-- reply 1.92 µM

----------
biological target: 5-HT2B receptor (Homo sapiens, UniProt P41595); construct: host or cells: CHO-K1; assay: FLIPR Ca2+ flux functional assay, agonist activity at 5-HT2B; assay type: cell-based; details: CHO-K1 cells, Ca2+ flux; read-out: 5-HT2B EC50
Sequence (P41595 whole entry): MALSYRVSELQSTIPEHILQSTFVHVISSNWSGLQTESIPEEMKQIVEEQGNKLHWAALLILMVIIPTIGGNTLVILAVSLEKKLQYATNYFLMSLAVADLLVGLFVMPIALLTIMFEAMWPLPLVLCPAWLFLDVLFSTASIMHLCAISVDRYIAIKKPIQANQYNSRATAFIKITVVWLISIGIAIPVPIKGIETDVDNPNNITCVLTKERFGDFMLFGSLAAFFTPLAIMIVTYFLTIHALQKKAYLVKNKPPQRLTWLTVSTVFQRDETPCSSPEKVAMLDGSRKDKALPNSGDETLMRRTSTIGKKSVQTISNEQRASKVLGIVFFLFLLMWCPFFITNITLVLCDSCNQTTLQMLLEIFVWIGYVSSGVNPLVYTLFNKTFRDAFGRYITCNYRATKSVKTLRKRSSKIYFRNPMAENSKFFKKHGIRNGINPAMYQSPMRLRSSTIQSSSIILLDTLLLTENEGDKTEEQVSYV
property.name: EC50

-- ask Entry CCN(CC)CCc1n[nH]c2cccc(O)c12 [Example P-43] has what EC50?
-- reply > 10 µM

-- ask Would you mind doing COc1cccc2[nH]nc(CCN(C)C)c12 [Example P-55] as well?
-- reply > 10 µM

-- ask Cool, now COc1nccc2[nH]cc(CCN(C(C)C)C(C)C)c12 [Example P-36]
-- reply 0.0964 µM

-- ask Thanks! And CCN(CC)CCc1c[nH]c2ccnc(OC)c12 [Example P-34] ?
-- reply > 10 µM

-- ask Try this compound next: CCN(C)CCc1c[nH]c2ncc(F)cc12 [Example P-25]
-- reply > 10 µM

-- ask And what about the compound CCN(CC)CCc1c[nH]c2nccc(OC)c12 [Example P-26] ?
-- reply > 10 µM

----------
experiment: In vivo pharmacokinetics: plasma and brain exposure after IP administration; set-up: species or system male C57BL/6 mice; conditions: male, C57BL/6, mouse, plasma, ip, 10 mg/kg, 0.5 h, n = 3, read-out: Plasma Concentration, Mean ± SD
property.name: concentration at 0.5 h

-- ask Recorded concentration at 0.5 h for COc1ccc2[nH]cc(CCN(C)C)c2n1 [Example P-1] , please?
-- reply 585 nM

-- ask Subsequent entry: COc1nccc2[nH]cc(CCN(C)C)c12 [Example P-5]
-- reply 859 nM

----------
target: 5-HT2A receptor (Homo sapiens, UniProt P28223); construct: host or cells: HEK293; test: FLIPR Ca2+ flux functional assay, agonist activity at 5-HT2A; type: cell-based; settings: HEK293 cells, Ca2+ flux
Sequence (P28223 whole entry): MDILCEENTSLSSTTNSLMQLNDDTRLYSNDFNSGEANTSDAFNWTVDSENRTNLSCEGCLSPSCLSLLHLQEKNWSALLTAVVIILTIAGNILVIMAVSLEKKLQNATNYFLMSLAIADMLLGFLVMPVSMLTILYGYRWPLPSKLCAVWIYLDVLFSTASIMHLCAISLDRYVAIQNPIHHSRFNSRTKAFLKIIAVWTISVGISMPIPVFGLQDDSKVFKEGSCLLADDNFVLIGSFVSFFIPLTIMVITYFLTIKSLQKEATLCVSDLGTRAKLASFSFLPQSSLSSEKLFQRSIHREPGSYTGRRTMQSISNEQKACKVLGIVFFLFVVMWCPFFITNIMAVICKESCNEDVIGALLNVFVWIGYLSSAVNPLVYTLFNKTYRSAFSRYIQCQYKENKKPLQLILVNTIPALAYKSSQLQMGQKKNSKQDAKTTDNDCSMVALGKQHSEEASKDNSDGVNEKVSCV
Mark true for Emax under 80%, false if at or over.

-- ask Consider the compound `CCN(C)CCc1c[nH]c2nccc(OC)c12` . Is its Emax strictly less than 80%?
-- reply true

-- ask Now this one: `CN(C)CCc1c[nH]c2ncc(F)cc12`
-- reply true

-- ask Continue with `Cc1nccc2[nH]cc(CCN(C)C)c12`
-- reply true

-- ask Another compound to look at: `CCN(CC)CCc1c[nH]c2ccc(OC)nc12`
-- reply false

-- ask Another compound to check: `CN(C)CCc1n[nH]c2cccc(O)c12`
-- reply true

-- ask Okay, and `Cc1cnc2[nH]cc(CCN(C)C)c2c1` ?
-- reply true

-- ask Similarly, `COc1ccnc2[nH]cc(CCN(C)C(C)C)c12` ?
-- reply true

-- ask Repeat for the following compound: `CCN(C)CCc1c[nH]c2ncc(F)cc12`
-- reply true

-- ask Likewise for `CCCN(CCC)CCc1c[nH]c2ncc(OC)cc12` ?
-- reply false

-- ask Now this one: `COc1ccc2onc(CCN(C)C)c2c1`
-- reply true

-- ask Now give it for `CCN(CC)CCc1c[nH]c2ccnc(OC)c12` too.
-- reply false

-- ask Check `Cc1ccnc2[nH]cc(CCN(C)C)c12` too.
-- reply true

-- ask Next compound: `CCN(C)CCc1c[nH]c2nccc(C)c12`
-- reply true

-- ask # repeat for `CCN(CC)CCc1c[nH]c2ncc(OC)cc12`
-- reply false

-- ask Let us now turn to `CCN(C)CCc1c[nH]c2ncc(C)cc12`
-- reply true

-- ask Cool, now `CCN(C)CCc1c[nH]c2ncc(OC)cc12`
-- reply true

-- ask # iterate: `CCN(C)CCc1c[nH]c2ccnc(C)c12`
-- reply true

-- ask Also need `COc1nccc2[nH]cc(CCN(C)C)c12` , thanks.
-- reply true

-- ask Next up: `CCCN(CCC)CCc1c[nH]c2ccc(OC)nc12`
-- reply false

-- ask And then `COc1ccc2[nH]cc(CCN(C)C)c2n1` , what is it?
-- reply true
